# assayedTarget: T1, wild-type rat apelin receptor-EGFP (rat, UniProt Q9JHG3 1-377, EGFP is fused at the C-terminal (intracellular) end of the receptor. It is not included in the letters.)
# T1 sequence: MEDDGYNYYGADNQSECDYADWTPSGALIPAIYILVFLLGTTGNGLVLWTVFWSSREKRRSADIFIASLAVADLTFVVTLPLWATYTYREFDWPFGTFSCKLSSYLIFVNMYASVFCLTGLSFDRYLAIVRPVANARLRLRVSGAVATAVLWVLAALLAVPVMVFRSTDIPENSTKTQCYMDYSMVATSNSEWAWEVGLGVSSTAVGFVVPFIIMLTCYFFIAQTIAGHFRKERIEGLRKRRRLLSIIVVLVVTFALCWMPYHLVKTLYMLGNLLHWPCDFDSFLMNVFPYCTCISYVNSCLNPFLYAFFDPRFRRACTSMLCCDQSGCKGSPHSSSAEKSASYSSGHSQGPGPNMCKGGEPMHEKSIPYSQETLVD
# protocolDetails: competitive radioligand binding vs [125I]-pE13F, membranes of CHO cells expressing rat apelin receptor-EGFP
Where no end group is shown, it is not given here. The star is where a group is joined. Propanoyl(3-C8F17) = O=C(CCC(F)(F)C(F)(F)C(F)(F)C(F)(F)C(F)(F)C(F)(F)C(F)(F)C(F)(F)F)*; Palmitoyl = CCCCCCCCCCCCCCCC(=O)*
measuredMetric: Ki (nM)

>  <binder>
K(heptadecafluoroundecanoyl)FRRQRPRLSHKGPMPF [JFM V-0220B]

>  <unitOfMeasure>
nM

>  <Ki>
0.16

$$$$
>  <binder>
KKFRRQRPRLSHKGPMPF (fluorocarbon (perfluoroalkyl) group on the εNH2 of the added N-terminal linker L-lysine) [JFM V-0210/1]

>  <unitOfMeasure>
nM

>  <Ki>
0.18

$$$$
>  <binder>
K(Palmitoyl)FRRQRPRLSHKGPMPF [JFM V-0220A]

>  <unitOfMeasure>
nM

>  <Ki>
1.43

$$$$

[I] {Propanoyl(3-C8F17)}-KFRRQRPRLSHKGPMPF [JFM V-0196B]
[II] KKFRRQRPRLSHKGPMPF (acyl group RC(O)- on the εNH2 of the added N-terminal linker L-lysine) [JFM V-0210/2]
[III] Palmitoyl-KFRRQRPRLSHKGPMPF [JFM V-0196A]
Please order the records by their reported Ki, lowest number first. Return value: ordered labels per request. I, III, II
(I: 0.21 nM, III: 0.76 nM, II: 1.33 nM)
